# study-system: recombinant human MMP-12 catalytic domain (Homo sapiens (Human))
# Sequence (P39900 106-268): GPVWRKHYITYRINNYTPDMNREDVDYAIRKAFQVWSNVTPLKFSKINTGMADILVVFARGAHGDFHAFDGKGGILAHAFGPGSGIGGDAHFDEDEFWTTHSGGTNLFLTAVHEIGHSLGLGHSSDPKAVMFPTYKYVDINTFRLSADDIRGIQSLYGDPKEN
# method-summary: MMP-12 inhibitory assay (fluorogenic substrate cleavage)
# Format: biochemical
# run-conditions: readout at 30 minutes, 37° C., pH 7.5; Table 1; read-out: MMP-12 IC50
measured-metric: IC50

For Cc1cc(COc2ccc(Sc3ncoc3C3NC(=O)NC3=O)cc2)ccn1 (centres unmarked) , write its IC50.
< 10 nM

Indicate the recorded IC50 value for this molecule: O=C1NC(=O)C(c2cnccc2Sc2ccc(OCc3cncc(C(=O)O)c3)cc2)N1 (centres unmarked)
> 1000 nM

Answer with the recorded IC50 of Cc1cc(COc2ccc(Sc3ccncc3C3NC(=O)NC3=O)c(Cl)c2)ccn1 (centres unmarked) only.
< 10 nM

Specify reported IC50 for the molecule shown: CCC1(c2cnccc2Sc2ccc(OCc3cccc(C)c3)cc2)NC(=O)NC1=O (centres unmarked)
< 10 nM

Consider the molecule Cc1cc(COc2ccc(Sc3ocnc3C3NC(=O)NC3=O)cc2)ccn1 (centres unmarked) . State its measured IC50.
> 1000 nM

Give me measured IC50, please, for this molecule: O=C1NC(=O)C(c2sccc2Sc2ccc(OCc3cccc(CO)c3)cc2)N1 (centres unmarked)
< 10 nM

Query IC50 for CCC1(c2cnccc2Sc2ccc(OCc3ccnc(C)c3)cc2)NC(=O)NC1=O (centres unmarked)
< 10 nM

Consider the molecule Cc1cc(COc2ccc(Sc3cnccc3C3NC(=O)NC3=O)cc2)ccn1 (centres unmarked) and give its recorded IC50.
< 10 nM
